Reported BUN values for the following compounds.
Organism: Rattus norvegicus
experimental protocol: Open TG-GATES - Regimen: Single
Type: toxicity, organism-based, Sprague-Dawley
Parameters: regimen Single, gender Male, age 6 weeks
protocol conditions: in vivo, po, 0 mg/kg, 9 h, tissue Plasma, route gavage, dose level Control

compound | BUN, mg/dL
NS(=O)(=O)c1cc(C(=O)O)c(NCc2ccco2)cc1Cl [FUROSEMIDE] | 9
CN(CCOc1ccc(CC2SC(=O)NC2=O)cc1)c1ccccn1.O=C(O)/C=C\C(=O)O (stereo unspecified) [ROSIGLITAZONE MALEATE] | 10.8
CCCCNC(=O)NS(=O)(=O)c1ccc(C)cc1 [TOLBUTAMIDE] | 7.6
Nc1ccc(Cc2ccc(N)cc2)cc1 | 8.8
O=C(O)c1ccccc1Nc1ccccc1 | 9.2
O=c1ccc2ccccc2o1 | 12.4
CC(=O)[C@@]1(O)CC[C@H]2[C@@H]3C=C(Cl)C4=CC(=O)CC[C@]4(C)[C@H]3CC[C@@]21C | 13.6
CN(C/C=C/C#CC(C)(C)C)Cc1cccc2ccccc12 | 11.8
CCO | 13.4
CC(S)C(=O)NCC(=O)O (stereo unspecified) | 12.2
CN(C)CCCN1c2ccccc2Sc2ccc(Cl)cc21 | 11.4

* * *

Organism: Rattus norvegicus
experimental protocol: Open TG-GATES - Regimen: Single
Format: toxicity, organism-based, Sprague-Dawley
Set-up: regimen Single, gender Male, age 6 weeks
protocol conditions: in vivo, po, 0 mg/kg, 9 h, tissue Blood, route gavage, dose level Control
compounds and their reported Ht

compound | Ht / %
CCN(CC)C(=S)SSC(=S)N(CC)CC | 39.9
O=C(O)c1ccccc1Nc1ccccc1 | 40.4
NS(=O)(=O)c1cc(C(=O)O)c(NCc2ccco2)cc1Cl [FUROSEMIDE] | 39
CN(C)CCCN1c2ccccc2Sc2ccc(Cl)cc21 | 38.2
Nc1ccc(Cc2ccc(N)cc2)cc1 | 37.3
CCO | 40.1
O=c1ccc2ccccc2o1 | 39.4
COc1cc2ncnc(Nc3ccc(F)c(Cl)c3)c2cc1OCCCN1CCOCC1 | 38.5
CCCCNC(=O)NS(=O)(=O)c1ccc(C)cc1 [TOLBUTAMIDE] | 40.1
CC(S)C(=O)NCC(=O)O (stereo not given) | 39.4

* * *

Reported LDH by item:
Species on record: Rattus norvegicus
experimental protocol: Open TG-GATES - Regimen: Single
Assay type: toxicity, organism-based, Sprague-Dawley
Parameters: regimen Single, gender Male, age 6 weeks
protocol conditions: in vivo, po, 0 mg/kg, 24 h, tissue Plasma, route gavage, dose level Control
readout label: LDH (IU/L)

molecule | quantitative readout
O=C(O)c1ccccc1Nc1ccccc1 | 85.4
COc1cc2ncnc(Nc3ccc(F)c(Cl)c3)c2cc1OCCCN1CCOCC1 | 145.5
CCN(CC)C(=S)SSC(=S)N(CC)CC | 167.6
CN(CCOc1ccc(CC2SC(=O)NC2=O)cc1)c1ccccn1.O=C(O)/C=C\C(=O)O (stereo unspecified) [ROSIGLITAZONE MALEATE] | 97
CCO | 87.8
O=c1ccc2ccccc2o1 | 92.6
CC(S)C(=O)NCC(=O)O (stereo unspecified) | 179.8
CCCCNC(=O)NS(=O)(=O)c1ccc(C)cc1 [TOLBUTAMIDE] | 78
Nc1ccc(Cc2ccc(N)cc2)cc1 | 49.2
C=C[C@H]1C[N@@]2CC[C@H]1C[C@@H]2[C@@H](O)c1ccnc2ccc(OC)cc12 | 202.2
CN(C/C=C/C#CC(C)(C)C)Cc1cccc2ccccc12 | 189.4

* * *

Species on record: Rattus norvegicus
experimental protocol: Open TG-GATES - Regimen: Daily Repeat
Type: toxicity, organism-based, Sprague-Dawley
Design: regimen Daily Repeat, gender Male, age 6 weeks
protocol conditions: in vivo, po, 1000 mg/kg, […], tissue Blood, route gavage, dose level High, time 7 day
readout label: RBC (x10_4/ul)

molecule | quantitative readout
CCCCNC(=O)NS(=O)(=O)c1ccc(C)cc1 [TOLBUTAMIDE] | 669.6
CC(S)C(=O)NCC(=O)O (centres undefined) | 626
O=C(O)c1ccccc1Nc1ccccc1 | 616
CC(=O)[C@@]1(O)CC[C@H]2[C@@H]3C=C(Cl)C4=CC(=O)CC[C@]4(C)[C@H]3CC[C@@]21C | 748.8

* * *

Recorded A/G for the following molecules
Species on record: Rattus norvegicus
experimental protocol: Open TG-GATES - Regimen: Daily Repeat
Format: toxicity, organism-based, Sprague-Dawley
Set-up: regimen Daily Repeat, gender Male, age 6 weeks
protocol conditions: in vivo, po, 0 mg/kg, 72 h, tissue Plasma, route gavage, dose level Control, time 3 day
readout label: A/G

molecule | quantitative readout
CCO [ALCOHOL] | 2.2
CC(=O)[C@@]1(O)CC[C@H]2[C@@H]3C=C(Cl)C4=CC(=O)CC[C@]4(C)[C@H]3CC[C@@]21C [CHLORMADINONE] | 1.2
O=C(O)c1ccccc1Nc1ccccc1 [FENAMIC ACID] | 0.9
O=c1ccc2ccccc2o1 [COUMARIN] | 2.1

* * *

Below, each entry is listed alongside its reported TP.
Species on record: Rattus norvegicus
experimental protocol: Open TG-GATES - Regimen: Daily Repeat
Type: toxicity, organism-based, Sprague-Dawley
Set-up: regimen Daily Repeat, gender Male, age 6 weeks
protocol conditions: in vivo, po, 300 mg/kg, […], tissue Plasma, route gavage, dose level Middle, time 7 day

compound | TP [g/dL]
CC(=O)[C@@]1(O)CC[C@H]2[C@@H]3C=C(Cl)C4=CC(=O)CC[C@]4(C)[C@H]3CC[C@@]21C [CHLORMADINONE] | 6
CCCCNC(=O)NS(=O)(=O)c1ccc(C)cc1 [TOLBUTAMIDE] | 5.6
CC(S)C(=O)NCC(=O)O (centres undefined) [TIOPRONIN] | 5.5
O=C(O)c1ccccc1Nc1ccccc1 [FENAMIC ACID] | 6

* * *

Listing: Neu of selected compounds
Species on record: Rattus norvegicus
experimental protocol: Open TG-GATES - Regimen: Daily Repeat
Assay type: toxicity, organism-based, Sprague-Dawley
Parameters: regimen Daily Repeat, gender Male, age 6 weeks
protocol conditions: in vivo, po, 100 mg/kg, […], tissue Blood, route gavage, dose level Low, time 7 day

compound | result units | Neu
CC(=O)[C@@]1(O)CC[C@H]2[C@@H]3C=C(Cl)C4=CC(=O)CC[C@]4(C)[C@H]3CC[C@@]21C [CHLORMADINONE] | % | 12
CC(S)C(=O)NCC(=O)O (centres undefined) [TIOPRONIN] | % | 16.4
O=C(O)c1ccccc1Nc1ccccc1 [FENAMIC ACID] | % | 22.8
CCCCNC(=O)NS(=O)(=O)c1ccc(C)cc1 [TOLBUTAMIDE] | % | 21.8

* * *

Organism: Rattus norvegicus
experimental protocol: Open TG-GATES - Regimen: Single
Type: toxicity, organism-based, Sprague-Dawley
Design: regimen Single, gender Male, age 6 weeks
protocol conditions: in vivo, po, 0 mg/kg, 3 h, tissue Blood, route gavage, dose level Control
Outcome label depends on Neu relative to 20%: at/above gives Met, below gives Not met.

molecule | qualitative label
CN(C)CCCN1c2ccccc2Sc2ccc(Cl)cc21 [CHLORPROMAZINE] | Not met
COc1cc2ncnc(Nc3ccc(F)c(Cl)c3)c2cc1OCCCN1CCOCC1 [GEFITINIB] | Met
CC(=O)[C@@]1(O)CC[C@H]2[C@@H]3C=C(Cl)C4=CC(=O)CC[C@]4(C)[C@H]3CC[C@@]21C [CHLORMADINONE] | Not met
CN(CCOc1ccc(CC2SC(=O)NC2=O)cc1)c1ccccn1.O=C(O)/C=C\C(=O)O (configuration not stated) [ROSIGLITAZONE MALEATE] | Not met
CC(S)C(=O)NCC(=O)O (configuration not stated) [TIOPRONIN] | Not met
CN(C/C=C/C#CC(C)(C)C)Cc1cccc2ccccc12 [TERBINAFINE] | Not met
O=c1ccc2ccccc2o1 [COUMARIN] | Not met
NS(=O)(=O)c1cc(C(=O)O)c(NCc2ccco2)cc1Cl [FUROSEMIDE] | Not met
CCCCNC(=O)NS(=O)(=O)c1ccc(C)cc1 [TOLBUTAMIDE] | Not met
CCO [ALCOHOL] | Not met
O=C(O)c1ccccc1Nc1ccccc1 [FENAMIC ACID] | Met
Nc1ccc(Cc2ccc(N)cc2)cc1 | Met

* * *

Organism: Rattus norvegicus
experimental protocol: Open TG-GATES - Regimen: Daily Repeat
Type: toxicity, organism-based, Sprague-Dawley
Set-up: regimen Daily Repeat, gender Male, age 6 weeks
protocol conditions: in vivo, po, 300 mg/kg, […], tissue Blood, route gavage, dose level Middle, time 7 day

compound | Mono [%]
CC(=O)[C@@]1(O)CC[C@H]2[C@@H]3C=C(Cl)C4=CC(=O)CC[C@]4(C)[C@H]3CC[C@@]21C [CHLORMADINONE] | 2.4
CCCCNC(=O)NS(=O)(=O)c1ccc(C)cc1 [TOLBUTAMIDE] | 2.2
O=C(O)c1ccccc1Nc1ccccc1 [FENAMIC ACID] | 2.4
CC(S)C(=O)NCC(=O)O (centres undefined) [TIOPRONIN] | 2.4
